These entries and their values trace back to paper PMC11684029.

protocolDescription: satellite PK for rat AHL
Format: in vivo
conditionSummary: brain, oral, 3 mg/kg, 2.5-h end of study, read-out: free brain concentration
measureName: concentration at 2.5 h

{"molecule": "Cn1nc(-c2ccnn2C)cc1CNC(=O)c1cc(-c2ccco2)ccc1Cl [Compound 19d]", "measuredResult": "32 nM"}

---

measurementTarget: rat mGlu1 (Rattus norvegicus)
Sequence (P23385 19-1199): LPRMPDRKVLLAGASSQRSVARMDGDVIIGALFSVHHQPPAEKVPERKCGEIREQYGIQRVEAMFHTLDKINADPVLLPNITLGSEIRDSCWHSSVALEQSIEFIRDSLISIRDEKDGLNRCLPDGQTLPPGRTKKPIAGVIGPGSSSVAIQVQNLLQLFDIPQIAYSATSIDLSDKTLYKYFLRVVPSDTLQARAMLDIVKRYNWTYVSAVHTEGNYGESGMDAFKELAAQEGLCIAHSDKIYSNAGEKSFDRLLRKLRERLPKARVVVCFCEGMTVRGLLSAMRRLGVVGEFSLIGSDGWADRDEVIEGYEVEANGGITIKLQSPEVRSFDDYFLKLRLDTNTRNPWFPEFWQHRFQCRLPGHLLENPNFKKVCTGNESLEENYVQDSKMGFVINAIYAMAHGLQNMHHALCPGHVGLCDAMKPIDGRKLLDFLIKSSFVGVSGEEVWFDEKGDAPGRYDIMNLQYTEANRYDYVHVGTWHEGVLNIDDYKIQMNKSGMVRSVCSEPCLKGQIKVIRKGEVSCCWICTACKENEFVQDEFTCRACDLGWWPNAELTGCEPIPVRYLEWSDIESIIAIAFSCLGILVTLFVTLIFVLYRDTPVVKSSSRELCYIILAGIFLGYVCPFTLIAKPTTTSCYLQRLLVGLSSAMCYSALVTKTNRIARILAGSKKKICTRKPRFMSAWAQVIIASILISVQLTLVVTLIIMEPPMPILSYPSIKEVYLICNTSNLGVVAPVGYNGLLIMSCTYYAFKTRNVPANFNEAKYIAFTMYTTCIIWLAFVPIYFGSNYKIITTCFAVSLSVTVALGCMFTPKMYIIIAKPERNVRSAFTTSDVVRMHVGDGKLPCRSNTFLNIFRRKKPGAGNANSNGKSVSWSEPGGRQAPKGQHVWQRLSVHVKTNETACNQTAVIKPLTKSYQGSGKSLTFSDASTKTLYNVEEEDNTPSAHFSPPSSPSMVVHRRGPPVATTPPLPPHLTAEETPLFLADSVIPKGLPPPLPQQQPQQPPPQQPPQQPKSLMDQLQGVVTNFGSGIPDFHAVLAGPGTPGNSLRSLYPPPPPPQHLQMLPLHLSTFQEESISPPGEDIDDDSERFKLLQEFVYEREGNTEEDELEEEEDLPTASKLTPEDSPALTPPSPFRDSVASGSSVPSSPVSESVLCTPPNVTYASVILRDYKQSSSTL
protocolDescription: mGlu1 calcium mobilization PAM assay
Type: cell-based
conditionSummary: PAM, calcium flux
Here, each record is paired with measured rat mGlu1 Glumax data.

{"compound": "Cn1nc(-c2ccccc2F)cc1CNC(=O)c1cc(-c2ccco2)ccc1Cl [Compound 19b]", "rat mGlu1 Glumax, %": 116}
{"compound": "O=C(NCc1cnn2ccccc12)c1cc(-c2ccco2)ccc1Cl", "rat mGlu1 Glumax, %": 92}
{"compound": "O=C(NCc1nc(C2CC2)no1)c1cc(-c2ccco2)ccc1Cl [Compound 15d]", "rat mGlu1 Glumax, %": 95}
{"compound": "O=C(NCc1cnn2ccccc12)c1cc(-c2nccs2)ccc1Cl", "rat mGlu1 Glumax, %": 79}
{"compound": "O=C(NCc1cnn2ccccc12)c1cc(-c2cccs2)ccc1Cl", "rat mGlu1 Glumax, %": 75}
{"compound": "O=C(NCc1noc(-c2ccccc2)n1)c1cc(-c2ccco2)ccc1Cl [Compound 15b]", "rat mGlu1 Glumax, %": 106}
{"compound": "Cn1nc(C(F)(F)F)cc1CNC(=O)c1cc(-c2ccco2)ccc1Cl [Compound 15f]", "rat mGlu1 Glumax, %": 74}

---

protocolDescription: rat IV plasma:brain level (PBL) PK
Format: in vivo
conditionSummary: plasma, iv, 1 mg/kg; rat PK PBL experiment; read-out: CLp
measureName: clearance (mL/min/kg)

{"compound": "Cn1nc(-c2ccnn2C)cc1CNC(=O)c1cc(-c2ccco2)ccc1Cl [Compound 19d]", "measureName": "clearance", "measuredResult": 8.3}

---

protocolDescription: rat IV plasma:brain level (PBL) PK
Format: in vivo
conditionSummary: plasma, iv, 1 mg/kg; rat PK PBL experiment
measureName: half-life (h)

{"compound": "Cn1nc(-c2ccnn2C)cc1CNC(=O)c1cc(-c2ccco2)ccc1Cl [Compound 19d]", "unitAbbrev": "h", "measuredResult": 3.6}

---

protocolDescription: solubility (kinetic, FaSSIF, FaSSGF)
Assay type: physicochemical
conditionSummary: pH 7.4, aqueous buffer, kinetic from dmso stock
measureName: solubility kinetic

{"compound": "Cn1nc(-c2ccnn2C)cc1CNC(=O)c1cc(-c2ccco2)ccc1Cl [Compound 19d]", "measuredResult": "4.1 µM"}

---

protocolDescription: rat IV plasma:brain level (PBL) PK
Assay type: in vivo
conditionSummary: Sprague-Dawley, 0.25 mg/kg/compound; rat IV PBL, brain:plasma

{"molecule": "Cn1nc(-c2ccnn2C)cc1CNC(=O)c1cc(-c2ccco2)ccc1Cl [Compound 19d]", "Kp at 15 min": 0.99}
{"molecule": "O=C(NCc1cnn2ccccc12)c1cc(-c2ccco2)ccc1Cl", "Kp at 15 min": 0.27}

---

measurementTarget: rat mGlu1 (Rattus norvegicus)
protocolDescription: mGlu1 calcium mobilization PAM assay
Assay type: cell-based
conditionSummary: PAM, calcium flux
measureName: EC50 (nM)

{"compound": "O=C(NCc1cnn2ccccc12)c1cc(-c2nccs2)ccc1Cl", "measureName": "EC50", "unitAbbrev": "nM", "measuredResult": 3150}
{"compound": "Cn1nc(-c2cccnc2)cc1CNC(=O)c1cc(-c2ccco2)ccc1Cl [Compound 19c]", "measureName": "EC50", "unitAbbrev": "nM", "measuredResult": 124}
{"compound": "Cn1nc(-c2ccnn2C)cc1CNC(=O)c1cc(-c2ccco2)ccc1Cl [Compound 19d]", "measureName": "EC50", "unitAbbrev": "nM", "measuredResult": 46}
